experiment: NCI Yeast Anticancer Drug Screen. Data for the mlh1 rad18 strain (AID 175); details: S. cerevisiae mlh1 rad18 strain growth inhibition; at 50.0 µM; active compounds read high
This is part of a sample that, as a whole, favours compounds with a hit. Of some 79,000 tested, about 15% had one in any assay.

{"molecule": "CC(=O)OC1C[C@H]2C(OC(=O)c3ccccc3)C3C4(OC(C)=O)COC4C[C@H](OC(C)=O)[C@@]3(C)C(OC(C)=O)[C@H](OC(C)=O)C(=C1C)C2(C)C (stereo not given in full)", "growth inhibition, %": 35.2}
{"molecule": "CC1=C/C(=C(/c2cccc(S(=O)(=O)O)c2)c2cc(C)c(O)c(C(=O)O)c2)C=C(C(=O)O)C1=O", "growth inhibition, %": 9.05}
{"molecule": "Cc1nc(Cl)c(Cl)c(Cl)n1", "growth inhibition, %": -5.2}
{"molecule": "CCC(=O)N(C)c1ccccc1", "growth inhibition, %": -23.4}
{"molecule": "O=[N+]([O-])c1ccc(O)c(N=Cc2ccc(C=Nc3cc([N+](=O)[O-])ccc3O)cc2)c1", "growth inhibition, %": -17.6}
{"molecule": "CC(C)C(NC(=O)C(=O)c1c[nH]c2ccc(Cl)cc12)C(=O)O (stereo not given)", "growth inhibition, %": -1.95}
{"molecule": "O=C(O)c1c[nH]c(=O)[nH]c1=O", "growth inhibition, %": -7.5}
{"molecule": "O=c1cc(-c2ccc(Cl)cc2)oc(-c2ccc(Cl)cc2)c1", "growth inhibition, %": 2.8}
{"molecule": "N#CC(C(=O)CCCC(=O)Nc1ccccc1[N+](=O)[O-])c1ccc(Cl)cc1Cl (stereo not given)", "growth inhibition, %": -26.6}
{"molecule": "Oc1ccc2ccccc2c1-c1c(OC(c2ccccc2)c2ccccc2)ccc2ccccc12", "growth inhibition, %": -13.1}

----------
The following molecules are shown together with reported growth inhibition values.
Assay: NCI Yeast Anticancer Drug Screen. Data for the mlh1 rad18 strain (AID 175)
Details: S. cerevisiae mlh1 rad18 strain growth inhibition; at 50.0 µM; active compounds read high
Experimental: Growth inhibition of yeast strains with defined genetic alterations is measured as a screen for potential anti-cancer activity. Selected strains with alterations in DNA damage repair or cell cycle control were exposed to compounds and growth inhibition was measured relative to vehicle treated controls. The strain used in this assay is mlh1 rad18
About 79,000 compounds went through this panel and 15% of them were active in at least one assay; those are over-represented in the sample as a whole.
test.readout: growth inhibition (%)

{"molecule": "O=P(O)(CP(=O)(c1ccccc1)c1ccccc1)c1ccccc1", "data.value": 10.9}
{"molecule": "Nc1ccc(I)cc1", "data.value": -22.1}
{"molecule": "CCC1(C#N)N=C(c2ccccc2)c2ccccc2N1C(=O)OC (configuration not stated)", "data.value": 18.1}
{"molecule": "Cc1ccc(S(=O)(=O)n2nc(C3OC(CO)C(O)C3O)c(O)c2C(N)=O)cc1 (configuration not stated)", "data.value": 22.8}
{"molecule": "CCOC(=O)C1=C(C(C)=O)C(c2cccc([N+](=O)[O-])c2)C(C(C)=O)=C(C(=O)OCC)N1", "data.value": 7.25}
{"molecule": "Cc1ccc(C2(O)c3ccccc3N=NN2C)cc1 (configuration not stated)", "data.value": 9.75}
{"molecule": "CC(=O)CCCC(=O)O", "data.value": 10.2}
{"molecule": "C=C1c2nc3ccccc3n2C=C(c2ccccc2)N1c1ccc([N+](=O)[O-])cc1", "data.value": 27.9}
{"molecule": "C/C(=N/NC(N)=S)c1ccc[nH]1", "data.value": -10.4}
{"molecule": "COc1cc(C#N)cc(OC)c1OC", "data.value": -12.2}
{"molecule": "O=C1C2=C(c3ccccc31)C(c1ccccc1Cl)N1C(=O)CSC1=N2 (configuration not stated)", "data.value": 60}
{"molecule": "CCOC(=O)c1ccc(NCc2nc3ccccc3nc2C)cc1", "data.value": -19.2}
